Tested on: maize (Zea mays, variety LORENZO)
Assay: Root growth assay, seed treatment, maize
Type: in vivo
Settings: 1 g a.i./ha, Root Growth of 100 is set as the standard, wet root weight 16 (±2) days post treatment
value-type: Root Growth
Returns: the value as a bare number; no unit string appended.

Would you please look over these solved cases?
O=C1NC(=O)C(c2ccccc2)=C1Nc1ccc(Cl)c(Cl)c1 ... 130
O=C1NC(=O)C(c2ccccc2C(F)(F)F)=C1Nc1ccc(O)c(Cl)c1 ... 114
Cc1ccc(NC2=C(c3ccc(Br)cc3)C(=O)NC2=O)cc1Cl ... 113

Tell me Root Growth reported for CN(C)CCCn1cc(C2=C(c3c[nH]c4ccccc34)C(=O)NC2=O)c2ccccc21 109

Tell me Root Growth reported for O=C1NC(=O)C(c2c(Cl)cccc2Cl)=C1Nc1cccc(Cl)c1 142

Tell me Root Growth reported for O=C1NC(=O)C(c2ccc(Cl)cc2)=C1Nc1ccc(O)c(C(=O)O)c1 122

###

Test system: maize (Zea mays, variety LORENZO)
Assay: Root growth assay, seed treatment, maize
Type: in vivo
Details: 10 g a.i./ha, Root Growth of 100 is set as the standard, wet root weight 16 (±2) days post treatment
value-type: Root Growth
Returns: the value as a bare number; no unit string appended.

Tell me Root Growth reported for O=C1NC(=O)C(c2ccccc2)=C1Nc1ccc(Cl)c(Cl)c1 117

###

Tested on: wheat (Triticum aestivum, variety TRISO)
Assay: Root growth assay, seed treatment, wheat
Type: in vivo
Settings: 10 g a.i./ha, Root Growth of 100 is set as the standard, wet root weight 16 (±2) days post treatment
Recorded Root Growth, one value per entry.
Returns: the value as a bare number; no unit string appended.

Cn1cc(C2=C(c3cn(CCCN)c4ccccc34)C(=O)NC2=O)c2ccccc21 ... 169
CN(C)CCCn1cc(C2=C(c3c[nH]c4ccccc34)C(=O)NC2=O)c2ccccc21 ... 150
O=C1NC(=O)C(c2c[nH]c3ccccc23)=C1c1c[nH]c2ccccc12 ... 129
O=C1NC(=O)C(c2ccc(Cl)cc2)=C1Nc1ccc(C(=O)O)cc1 ... 183
Cn1cc(C2=C(c3c4n(c5ccccc35)CCC(CN)C4)C(=O)NC2=O)c2ccccc21 (stereo not shown) ... 150

Tell me Root Growth reported for Cc1ccc(NC2=C(c3ccc(Br)cc3)C(=O)NC2=O)cc1Cl 171

Tell me Root Growth reported for O=C1NC(=O)C(c2cc(Cl)sc2Cl)=C1Nc1ccc(O)c(Cl)c1 134

###

Tested on: wheat (Triticum aestivum, variety TRISO)
Assay: Root growth assay, seed treatment, wheat
Assay type: in vivo
Details: 1 g a.i./ha, Root Growth of 100 is set as the standard, wet root weight 16 (±2) days post treatment
Recorded Root Growth, one value per entry.
Returns: the value as a bare number; no unit string appended.

O=C1NC(=O)C(c2cc(Cl)sc2Cl)=C1Nc1ccc(O)c(Cl)c1 [Compound 1.10] ... 101

Tell me Root Growth reported for Cn1cc(C2=C(c3c4n(c5ccccc35)CCC(CN)C4)C(=O)NC2=O)c2ccccc21 (stereo not shown) [Compound 12] 126

Tell me Root Growth reported for O=C1NC(=O)C(c2ccc(Cl)cc2)=C1Nc1ccc(C(=O)O)cc1 [Compound 1.19] 148

###

Test system: maize (Zea mays, variety LORENZO)
Assay: Root growth assay, seed treatment, maize
Assay type: in vivo
Settings: 10 g a.i./ha, Root Growth of 100 is set as the standard, wet root weight 16 (±2) days post treatment
Recorded Root Growth, one value per entry.

Would you please look over these solved cases?
CN(C)CCCn1cc(C2=C(c3c[nH]c4ccccc34)C(=O)NC2=O)c2ccccc21 [Compound 8] ... 150
O=C1NC(=O)C(c2ccccc2C(F)(F)F)=C1Nc1ccc(O)c(Cl)c1 [Compound 1.8] ... 144
O=C1NC(=O)C(c2ccc(Cl)cc2)=C1Nc1ccc(O)c(C(=O)O)c1 [Compound 1.12] ... 172

Tell me Root Growth reported for O=C1NC(=O)C(c2c(Cl)cccc2Cl)=C1Nc1cccc(Cl)c1 [Compound 1.20] 114

Tell me Root Growth reported for Cc1ccc(NC2=C(c3ccc(Br)cc3)C(=O)NC2=O)cc1Cl [Compound 1.16] 112

###

Recorded Root Growth, one value per entry.
System: wheat (Triticum aestivum, variety TRISO)
Assay: Root growth assay, seed treatment, wheat
Format: in vivo
Details: 1 g a.i./ha, Root Growth of 100 is set as the standard, wet root weight 16 (±2) days post treatment
Returns: the value as a bare number; no unit string appended.

Would you please look over these solved cases?
Cn1cc(C2=C(c3cn(CCCN)c4ccccc34)C(=O)NC2=O)c2ccccc21 [Compound 11] ... 162
CN(C)CCCn1cc(C2=C(c3c[nH]c4ccccc34)C(=O)NC2=O)c2ccccc21 [Compound 8] ... 122
Cc1ccc(NC2=C(c3ccc(Br)cc3)C(=O)NC2=O)cc1Cl [Compound 1.16] ... 84

Consider the additional compound presented here.
Tell me Root Growth reported for O=C1NC(=O)C(c2c[nH]c3ccccc23)=C1c1c[nH]c2ccccc12 [Compound 1, 3,4-Di-(1H-indol-3-yl)pyrrole-2,5-dione] 69

Recorded values, source patent US20100152044A1.
